Target: FOXC2 DBD WT (UniProt Q99958 72-172)
Sequence: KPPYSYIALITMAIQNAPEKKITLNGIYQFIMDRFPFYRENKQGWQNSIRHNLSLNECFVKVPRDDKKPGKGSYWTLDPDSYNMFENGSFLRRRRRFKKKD
Assay: SELEX-seq (GST pull-down, four rounds, 16-nt random library); pH 7.0; 20 mM HEPES, 140 mM KCl, 0.05 mM TCEP-HCl, pH 7.0, room temperature, 30 min; 2.5 uM GST-FOXC2 DBD, 0.25 uM DNA library; high values mean tight binding
Details: protein: recombinant; tags: N-terminal GST (pGEX-6P-2); dsDNA, one strand shown
In all, about 1,100 sequences were measured (“relative enrichment”: median about 0.38, highest 2% from about 0.66 on). Shown is part of a subset that was picked to be rich in the highest values.
Note to self: binding signal under 0.4 relative enrichment means 1, ties and anything higher get 0.

[[record]]
item_sequence = "AGATTA"
test_system = "FOXC2 DBD WT (UniProt Q99958 72-172)"
class_label = 1

[[record]]
item_sequence = "CTTCAT"
test_system = "FOXC2 DBD WT (UniProt Q99958 72-172)"
class_label = 0

[[record]]
item_sequence = "GACACA"
test_system = "FOXC2 DBD WT (UniProt Q99958 72-172)"
class_label = 1

[[record]]
item_sequence = "ACTACA"
test_system = "FOXC2 DBD WT (UniProt Q99958 72-172)"
class_label = 1

[[record]]
item_sequence = "AAACGA"
test_system = "FOXC2 DBD WT (UniProt Q99958 72-172)"
class_label = 0

[[record]]
item_sequence = "AAATAT"
test_system = "FOXC2 DBD WT (UniProt Q99958 72-172)"
class_label = 0

[[record]]
item_sequence = "TGTCAA"
test_system = "FOXC2 DBD WT (UniProt Q99958 72-172)"
class_label = 0

[[record]]
item_sequence = "AAATAA"
test_system = "FOXC2 DBD WT (UniProt Q99958 72-172)"
class_label = 0

[[record]]
item_sequence = "AAAGCA"
test_system = "FOXC2 DBD WT (UniProt Q99958 72-172)"
class_label = 1

[[record]]
item_sequence = "CTTAAG"
test_system = "FOXC2 DBD WT (UniProt Q99958 72-172)"
class_label = 1

[[record]]
item_sequence = "GACTTA"
test_system = "FOXC2 DBD WT (UniProt Q99958 72-172)"
class_label = 0

[[record]]
item_sequence = "AATAAT"
test_system = "FOXC2 DBD WT (UniProt Q99958 72-172)"
class_label = 1

[[record]]
item_sequence = "CTACAA"
test_system = "FOXC2 DBD WT (UniProt Q99958 72-172)"
class_label = 1

[[record]]
item_sequence = "CAGACT"
test_system = "FOXC2 DBD WT (UniProt Q99958 72-172)"
class_label = 0

[[record]]
item_sequence = "CTTACA"
test_system = "FOXC2 DBD WT (UniProt Q99958 72-172)"
class_label = 1

[[record]]
item_sequence = "TCCAAA"
test_system = "FOXC2 DBD WT (UniProt Q99958 72-172)"
class_label = 1

[[record]]
item_sequence = "AAGCAG"
test_system = "FOXC2 DBD WT (UniProt Q99958 72-172)"
class_label = 0

[[record]]
item_sequence = "AACGAA"
test_system = "FOXC2 DBD WT (UniProt Q99958 72-172)"
class_label = 1

[[record]]
item_sequence = "AACCAC"
test_system = "FOXC2 DBD WT (UniProt Q99958 72-172)"
class_label = 1

[[record]]
item_sequence = "TACTCC"
test_system = "FOXC2 DBD WT (UniProt Q99958 72-172)"
class_label = 0

[[record]]
item_sequence = "CATAAA"
test_system = "FOXC2 DBD WT (UniProt Q99958 72-172)"
class_label = 0

[[record]]
item_sequence = "CAATTC"
test_system = "FOXC2 DBD WT (UniProt Q99958 72-172)"
class_label = 1

[[record]]
item_sequence = "ACAAGA"
test_system = "FOXC2 DBD WT (UniProt Q99958 72-172)"
class_label = 1

[[record]]
item_sequence = "ATATTA"
test_system = "FOXC2 DBD WT (UniProt Q99958 72-172)"
class_label = 1

[[record]]
item_sequence = "CCCTTG"
test_system = "FOXC2 DBD WT (UniProt Q99958 72-172)"
class_label = 0

[[record]]
item_sequence = "AATAAA"
test_system = "FOXC2 DBD WT (UniProt Q99958 72-172)"
class_label = 0

[[record]]
item_sequence = "GAAAAA"
test_system = "FOXC2 DBD WT (UniProt Q99958 72-172)"
class_label = 1

[[record]]
item_sequence = "AACTCA"
test_system = "FOXC2 DBD WT (UniProt Q99958 72-172)"
class_label = 1

[[record]]
item_sequence = "CATCCT"
test_system = "FOXC2 DBD WT (UniProt Q99958 72-172)"
class_label = 0

[[record]]
item_sequence = "TATAAA"
test_system = "FOXC2 DBD WT (UniProt Q99958 72-172)"
class_label = 1

[[record]]
item_sequence = "TCTAAC"
test_system = "FOXC2 DBD WT (UniProt Q99958 72-172)"
class_label = 1

[[record]]
item_sequence = "GATAAA"
test_system = "FOXC2 DBD WT (UniProt Q99958 72-172)"
class_label = 1

[[record]]
item_sequence = "CATCTC"
test_system = "FOXC2 DBD WT (UniProt Q99958 72-172)"
class_label = 0

[[record]]
item_sequence = "TTTCCC"
test_system = "FOXC2 DBD WT (UniProt Q99958 72-172)"
class_label = 1

[[record]]
item_sequence = "ACCACT"
test_system = "FOXC2 DBD WT (UniProt Q99958 72-172)"
class_label = 0

[[record]]
item_sequence = "AGGATA"
test_system = "FOXC2 DBD WT (UniProt Q99958 72-172)"
class_label = 1

[[record]]
item_sequence = "TATACA"
test_system = "FOXC2 DBD WT (UniProt Q99958 72-172)"
class_label = 0

[[record]]
item_sequence = "AATAAG"
test_system = "FOXC2 DBD WT (UniProt Q99958 72-172)"
class_label = 0

[[record]]
item_sequence = "CAAGCA"
test_system = "FOXC2 DBD WT (UniProt Q99958 72-172)"
class_label = 0

[[record]]
item_sequence = "TATGAA"
test_system = "FOXC2 DBD WT (UniProt Q99958 72-172)"
class_label = 1

[[record]]
item_sequence = "AGCGTA"
test_system = "FOXC2 DBD WT (UniProt Q99958 72-172)"
class_label = 0

[[record]]
item_sequence = "CATCGC"
test_system = "FOXC2 DBD WT (UniProt Q99958 72-172)"
class_label = 0

[[record]]
item_sequence = "ATCTAG"
test_system = "FOXC2 DBD WT (UniProt Q99958 72-172)"
class_label = 0

